Molecule	melting point
C#CCN1C(=O)c2cccc3c(-c4ccc5c(c4)c(-c4nc6ccccc6s4)cn5CC=C)ccc(c23)C1=O [Compound 13]	282 to 285 °C
C=CCn1cc(-c2nc3ccccc3s2)c2cc(-c3ccc4c5c(cccc35)C(=O)N(C3CCCCC3)C4=O)ccc21 [Compound 19]	285 to 288 °C
C=CCn1cc(-c2nc3ccccc3s2)c2cc(-c3ccc4c5c(cccc35)C(=O)N(CCO)C4=O)ccc21 [Compound 12]	292 to 295 °C
C=CCn1cc(-c2nc3ccccc3s2)c2cc(-c3ccc4c5c(cccc35)C(=O)OC4=O)ccc21 [Compound 7]	255 to 258 °C
